Source of measurements: patent US20230348369A1

System under test: human NAMPT (Homo sapiens)
Experimental protocol: Human recombinant enzyme assay (NMN fluorescence biochemical assay, activation of NAMPT)
Condition summary: Table A; human recombinant NAMPT, NMN formation, 60 min
Property measured: AC1.4 Human (µM)

# example entries with known answers
[
  {
    "Molecule": "COc1ccc(CNC(=O)NC2CC3(C2)CC(C(=O)NCC(C)(C)c2ccccc2C)C3)cc1 (stereo not drawn) [Compound 54]",
    "System under test": "human NAMPT (Homo sapiens)",
    "Recorded number": 1.4
  },
  {
    "Molecule": "Cc1ccc(C(=O)NCCCCCNC(=O)NCc2ccc(Cl)cc2)cn1 [Compound 281]",
    "System under test": "human NAMPT (Homo sapiens)",
    "Recorded number": 1.3
  }
]

I: O=C(NCCCCCNC(=O)c1cccnc1)NCc1ccc(Cl)cc1 [Compound 277]
II: Cc1ccc(C(=O)N2CC3(CC(NC(=O)NCc4ccc(Cl)cc4)C3)C2)cc1 [Compound 206]
Lab note: check whether I or II has the lower measured AC1.4 Human. Respond with the label that goes with your answer.
II
(II: 2.2 µM, I: 3.2 µM)

P: Cc1cc(C(=O)N2CC3(CC(NC(=O)NCc4ccc(C(N)=O)cc4)C3)C2)ccn1 [Compound 226]
Q: O=C(NCCCCCC(=O)N1CCOCC1)NCc1ccc(Cl)cc1 [Compound 259]
R: CN(C(=O)CCCCCNC(=O)NCc1ccc(Cl)cc1)c1ccccc1F [Compound 274]
S: COc1ccc(CNC(=O)NC2CC3(C2)CC(C(=O)N2CCCc4cc(C)ccc42)C3)cc1 (stereo not drawn) [Compound 84]
Order the 4 molecules from highest to lowest AC1.4 Human. Order the labels as requested and list them.
Q, P, R, S
(Q: 8.6 µM, P: 2.9 µM, R: 1.9 µM, S: 0.1 µM)

a: Cc1ccc(C(=O)N2CC3(CC(NC(=O)NCc4ccc(C(N)=O)nc4)C3)C2)cc1 [Compound 215]
b: COc1ccc(CNC(=O)NC2CC3(C2)CN(C(=O)C2(c4ccccc4)CC2)C3)cc1 [Compound 143]
Lab note: check whether a or b has the lower measured AC1.4 Human. Respond with the label that goes with your answer.
a
(a: 3.6 µM, b: 8.0 µM)

P: COc1ccc(CNC(=O)NC2CC3(C2)CC(C(=O)NCc2ccc(C#N)cc2F)C3)cc1 (stereo not drawn) [Compound 77]
Q: O=C(NCc1ccc(Cl)cc1)NC1CC2(CC(CN3CCC[C@@H]3c3cccnc3)C2)C1 (stereo partly drawn) [Compound 239]
Which has the higher AC1.4 Human, P or Q ? Respond with the label that goes with your answer.
P
(P: 7.2 µM, Q: 2.1 µM)

---

System under test: human NAMPT (Homo sapiens)
Experimental protocol: Human recombinant enzyme assay (NMN fluorescence biochemical assay, activation of NAMPT)
Condition summary: Table A; human recombinant NAMPT, NMN formation, 60 min; read-out: EC50 Human
Protocol: Compounds described herein were assayed for their ability to stimulate the synthesis of nicotinamide mononucleotide (NMN) by the enzyme NAMPT. […] Dose responses were measured using an assay to detect the formation of nicotinamide mono-nucleotide. […] The plates were read for fluorescence (Excitation/Emission=355 nm/460 nm) using an EnVision plate reader after 40 mins of incubation at ambient temperature.
pEC50: −log10 of the molar value.
Property measured: pEC50

# example entries with known answers
[
  {
    "Compound": "COc1ccc(CNC(=O)NC2CC3(C2)CC(C(=O)N2CCCC2c2ccccc2)C3)cc1 (stereo not shown)",
    "pEC50": 4.44
  },
  {
    "Compound": "COc1ccc(CNC(=O)NC2CC3(C2)CC(C(=O)N2CCC2c2ccccc2)C3)cc1 (stereo not shown)",
    "pEC50": 4.28
  },
  {
    "Compound": "O=C(CCCCCNC(=O)NCc1ccc(Cl)cc1)NC1CCCCC1",
    "pEC50": 4.75
  },
  {
    "Compound": "COc1ccc(CNC(=O)NC2CC3(C2)CC(C(=O)N2CCCc4cnccc42)C3)cc1 (stereo not shown)",
    "pEC50": 5.29
  },
  {
    "Compound": "O=C(NCc1ccc(Cl)cc1)NC1CC2(C1)CC(NC(=O)c1ccncc1)C2 (stereo not shown)",
    "pEC50": 4.66
  },
  {
    "Compound": "COc1ccc(CNC(=O)NC2CC3(C2)CC(C(=O)NC2CC(CO)c4ccccc42)C3)cc1 (stereo not shown)",
    "pEC50": 4.46
  }
]

I: COc1ccc(CNC(=O)NC2CC3(C2)CC(C(=O)N(C)c2ccccc2)C3)cc1 (stereo not shown)
II: CC(C)c1cccc(C(=O)N2CC3(CC(NC(=O)NCc4ccc(Cl)cc4)C3)C2)c1
III: O=C(NCCCCC(=O)N1CCCc2ccccc21)NCc1ccc(Cl)cc1
IV: COC(=O)C1CCC(S(=O)(=O)N2CC3(CC(NC(=O)NCc4ccc(OC)cc4)C3)C2)CC1 (stereo not shown)
Order the 4 compounds from highest to lowest pEC50. Order the labels as requested and list them.
III, II, I, IV
(III: 5.70, II: 5.33, I: 4.56, IV: 4.31)

---

System under test: human NAMPT (Homo sapiens, UniProt P43490)
Sequence (P43490 whole entry): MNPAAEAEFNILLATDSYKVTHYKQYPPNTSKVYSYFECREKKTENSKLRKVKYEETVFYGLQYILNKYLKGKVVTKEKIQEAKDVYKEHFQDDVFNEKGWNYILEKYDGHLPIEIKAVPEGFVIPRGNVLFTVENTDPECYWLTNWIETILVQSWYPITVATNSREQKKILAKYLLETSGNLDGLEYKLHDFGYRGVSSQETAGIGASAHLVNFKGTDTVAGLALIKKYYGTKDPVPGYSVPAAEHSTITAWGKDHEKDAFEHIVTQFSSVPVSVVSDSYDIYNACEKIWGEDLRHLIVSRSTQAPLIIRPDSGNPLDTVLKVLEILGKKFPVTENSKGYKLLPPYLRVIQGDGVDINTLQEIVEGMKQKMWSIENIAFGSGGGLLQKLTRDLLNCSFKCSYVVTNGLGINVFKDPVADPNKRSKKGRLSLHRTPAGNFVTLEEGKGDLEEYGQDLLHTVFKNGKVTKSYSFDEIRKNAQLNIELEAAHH
Experimental protocol: Human recombinant enzyme assay (NMN fluorescence biochemical assay, activation of NAMPT)
Condition summary: Table A; human recombinant NAMPT, NMN formation, 60 min
Property measured: AC1.4 Human (µM)

# example entries with known answers
[
  {
    "Compound": "Cc1cc(N2CC[C@]3(C2)C[C@@H](NC(=O)NCc2ccc(Cl)cc2)C3)ccn1 [Compound 171]",
    "Unit": "µM",
    "AC1.4 Human": 17.3
  },
  {
    "Compound": "O=C(NCCCCC1CCN(C(=O)c2ccccn2)CC1)NCc1ccc(Cl)cc1 [Compound 292]",
    "Unit": "µM",
    "AC1.4 Human": 0.5
  },
  {
    "Compound": "COc1ccc(CNC(=O)NC2CC3(C2)CC(c2nnc(-c4ccccc4)o2)C3)cc1 (stereo not drawn) [Compound 325]",
    "Unit": "µM",
    "AC1.4 Human": 2.4
  }
]

A: CC(C)(O)CN1CCN(C(=O)CC2CC3(C2)CC(NC(=O)NCc2ccc(Cl)cc2)C3)CC1 (stereo not drawn) [Compound 234]
B: COc1ccc(CNC(=O)NC2CC3(C2)CN(C(=O)c2ccc(C#N)cc2)C3)cc1 [Compound 156]
Which has the higher AC1.4 Human, A or B ? Respond with the label that goes with your answer.
B
(B: 11.0 µM, A: 3.7 µM)

A: O=C(NCc1cn[nH]c1)NC1CC2(C1)CC(NC(=O)c1ccccc1)C2 (stereo not drawn) [Compound 17]
B: O=C(NCCCCC1CCN(C(=O)Cc2ccccc2)CC1)NCc1ccc(Cl)cc1 [Compound 291]
C: CN(Cc1ccccc1)C(=O)CCCCCNC(=O)NCc1ccc(Cl)cc1 [Compound 269]
In this exercise, place the 3 compounds in ascending sequence of their recorded AC1.4 Human. Order the labels as requested and list them.
C, B, A
(C: 0.7 µM, B: 1.9 µM, A: 17.6 µM)

a: COc1ccc(CNC(=O)NC2CC3(C2)CC(C(=O)NCc2ccnc(OC(F)F)c2)C3)cc1 (stereo not drawn) [Compound 88]
b: O=C(NCc1ccc(Cl)cc1)N[C@H]1C[C@]2(CCN(C(=O)N3CCC(N4CCCCC4)CC3)C2)C1 [Compound 354]
Which has the higher AC1.4 Human, a or b ? Respond with the label that goes with your answer.
a

I: O=C(NCc1ccc(Cl)cc1)NC1CC2(C1)CC(NS(=O)(=O)c1cccnc1)C2 (stereo not drawn) [Compound 213]
II: COc1ccc(CNC(=O)NC2CC3(C2)CC(C(=O)NC2Cc4ccccc4C2)C3)cc1 (stereo not drawn) [Compound 95]
III: CC(C)(O)CN1CCN(C(=O)CCCCCNC(=O)NCc2ccc(Cl)cc2)CC1 [Compound 261]
In this exercise, place the 3 compounds in ascending sequence of their recorded AC1.4 Human. Order the labels as requested and list them.
III, II, I

---

System under test: human NAMPT (Homo sapiens)
Experimental protocol: Human recombinant enzyme assay (NMN fluorescence biochemical assay, activation of NAMPT)
Condition summary: Table A; human recombinant NAMPT, NMN formation, 60 min; read-out: EC50 Human
Description: Compounds described herein were assayed for their ability to stimulate the synthesis of nicotinamide mononucleotide (NMN) by the enzyme NAMPT. […] Dose responses were measured using an assay to detect the formation of nicotinamide mono-nucleotide. […] The plates were read for fluorescence (Excitation/Emission=355 nm/460 nm) using an EnVision plate reader after 40 mins of incubation at ambient temperature.
Property measured: EC50 (µM)

1: NC(=O)c1ccc(CNC(=O)NC2CC3(C2)CC(NC(=O)c2ccccc2)C3)cc1 (centres unmarked)
2: Cn1cc(C(=O)N2CCC(CCCCNC(=O)NCc3ccc(Cl)cc3)CC2)nn1
Lab note: check whether 1 or 2 has the lower measured EC50. Respond with the label that goes with your answer.
2
